Tested on: 556581-035-R-J1-PDC complex spheroid growth
Experiment: Anticancer human tumor 556581-035-R-J1-PDC patient-derived ovarian carcinoma cell line growth inhibition [AhR]
Conditions: second compound 1 µM; first compound 0.949 µM; active compounds read low
For each record, check the reported viability, T/C: if it is below 80% write yes (1), else write no (0).

- O=C(C=Cn1cnc(-c2cc(C(F)(F)F)cc(C(F)(F)F)c2)n1)NNc1cnccn1 + CC(CO)NC(=O)c1cc(-c2ccc(Cl)cc2)nn(-c2cnn(C)c2)c1=O: yes (1)
- CCN(c1cc(-c2ccc(CN3CCOCC3)cc2)cc(C(=O)NCc2c(C)cc(C)[nH]c2=O)c1C)C1CCOCC1 + CC(CO)NC(=O)c1cc(-c2ccc(Cl)cc2)nn(-c2cnn(C)c2)c1=O: no (0)
- O=C(C=Cn1cnc(-c2cc(C(F)(F)F)cc(C(F)(F)F)c2)n1)NNc1cnccn1 + Cc1ccccc1N=Nc1ccc(NC(=O)c2ccnn2C)c(C)c1: yes (1)
- O=C(C=Cn1cnc(-c2cc(C(F)(F)F)cc(C(F)(F)F)c2)n1)NNc1cnccn1 + Cc1cncc(-c2nc(NCCc3c[nH]c4ccccc34)c3ncn(C(C)C)c3n2)c1: yes (1)
- CCN(c1cc(-c2ccc(CN3CCOCC3)cc2)cc(C(=O)NCc2c(C)cc(C)[nH]c2=O)c1C)C1CCOCC1 + Cc1cncc(-c2nc(NCCc3c[nH]c4ccccc34)c3ncn(C(C)C)c3n2)c1: no (0)

Pending compound:
# input Please let me know if CCN(c1cc(-c2ccc(CN3CCOCC3)cc2)cc(C(=O)NCc2c(C)cc(C)[nH]c2=O)c1C)C1CCOCC1 + Cc1ccccc1N=Nc1ccc(NC(=O)c2ccnn2C)c(C)c1 shows viability, T/C below 80%.
# output no (0)

====

System: 556581-035-R-J1-PDC complex spheroid growth
Experiment: Anticancer human tumor 556581-035-R-J1-PDC cell line growth inhibition [AhR]; active = viability on the fitted dose curve at most 10% of control; inactive = the rest;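 note: compound exposure lasted 7 days; 100% = DMSO vehicle control growth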
Settings: second compound 10 µM; first compound 0.3 µM
Can you answer with just one of these options? yes (1) (active), no (0) (inactive)

• Nc1ncn(C2CC(O)C(CO)S2)c(=O)n1 (stereo unspecified) + Cc1cncc(-c2nc(NCCc3c[nH]c4ccccc34)c3ncn(C(C)C)c3n2)c1 = no (0)

# input How did this test come out for CCc1c2c(nc3ccc(O)cc13)-c1cc3c(c(=O)n1C2)COC(=O)[C@]3(O)CC + CC(CO)NC(=O)c1cc(-c2ccc(Cl)cc2)nn(-c2cnn(C)c2)c1=O ?
# output yes (1)

# input Check the results log: what was the call for CCN(c1cc(-c2ccc(CN3CCOCC3)cc2)cc(C(=O)NCc2c(C)cc(C)[nH]c2=O)c1C)C1CCOCC1 + Cc1ccccc1N=Nc1ccc(NC(=O)c2ccnn2C)c(C)c1 ?
# output no (0)

# input Fill in: this test's call for CCN(c1cc(-c2ccc(CN3CCOCC3)cc2)cc(C(=O)NCc2c(C)cc(C)[nH]c2=O)c1C)C1CCOCC1 + Cc1cncc(-c2nc(NCCc3c[nH]c4ccccc34)c3ncn(C(C)C)c3n2)c1 is ___
# output no (0)

# input Fill in: this test's call for Nc1ncn(C2CC(O)C(CO)S2)c(=O)n1 (stereo unspecified) + Cc1ccccc1N=Nc1ccc(NC(=O)c2ccnn2C)c(C)c1 is ___
# output no (0)

# input Write down the call the test reported for this molecule. Item: O=C(C=Cn1cnc(-c2cc(C(F)(F)F)cc(C(F)(F)F)c2)n1)NNc1cnccn1 + CC(CO)NC(=O)c1cc(-c2ccc(Cl)cc2)nn(-c2cnn(C)c2)c1=O
# output no (0)

FYI, the data here is from PubChem BioAssay AID1918999.
